# maps each entry to its normalized growth
Experiment: chemical genetic growth profiling, strain panel (AID 1159580);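 further: tested at 20 µM; growth read once vehicle control cultures reached saturation at 30 °C; 1 = growth at the plate median or of vehicle wells; lower values mean less growth of the strain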
Settings: S. cerevisiae deletion strains, growth OD, locus YLR342W, strain FKS1, stronger effect = lower value
About 2,000 (36%) of roughly 5,500 compounds were called active. Another 18% or so got no clear call; they are omitted. Some of the results follow.
// no unit string in output, number only

compound | normalized growth
CCSC(=N)N | 1.02

Fill in reported normalized growth for this entry: OCc1ccccc1O[C@@H]1O[C@H](CO)[C@@H](O)[C@H](O)[C@H]1O
0.995

Please give measured normalized growth of the following entry: CC(=O)O[C@]1(C(C)=O)CCC2C3C[C@H](C)C4=CC(=O)CC[C@]4(C)C3CC[C@@]21C (stereo not given in full)
0.948

Annotate the compound CC(=O)OCC(CCn1cnc2cnc(N)nc21)COC(C)=O with its measured normalized growth.
0.989

Read the entry CCCCCC(=O)O[C@]1(C(C)=O)CCC2C3CCC4=CC(=O)CC[C@]4(C)C3CC[C@@]21C (stereo not given in full) and write its reported normalized growth.
0.996

Determine its reported normalized growth: C/C=C(/C(=C/C)c1ccc(O)cc1)c1ccc(O)cc1
0.943
